subjectOfTest: UniProt P30551
Sequence (P30551 whole entry): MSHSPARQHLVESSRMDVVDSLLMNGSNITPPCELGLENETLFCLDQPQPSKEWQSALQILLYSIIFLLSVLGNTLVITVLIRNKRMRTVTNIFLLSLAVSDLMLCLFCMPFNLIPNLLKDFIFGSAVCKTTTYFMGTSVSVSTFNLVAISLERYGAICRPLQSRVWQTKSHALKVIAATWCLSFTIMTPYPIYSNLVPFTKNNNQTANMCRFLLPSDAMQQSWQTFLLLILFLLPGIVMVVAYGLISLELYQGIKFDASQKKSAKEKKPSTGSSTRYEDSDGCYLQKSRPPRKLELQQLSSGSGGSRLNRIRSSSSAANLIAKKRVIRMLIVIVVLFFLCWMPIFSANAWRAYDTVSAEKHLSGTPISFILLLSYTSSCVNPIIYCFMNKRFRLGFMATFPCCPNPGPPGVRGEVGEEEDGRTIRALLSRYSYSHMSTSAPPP
pIC50: −log10 of the molar value.
Output T for pIC50 not less than 6; output F otherwise.

Could you please find out whether Cc1cccc(NC(=O)NC2N=C(c3ccccc3)c3ccccc3N(CC(=O)C3CCCC3)C2=O)c1 (racemic) has pIC50 that meets 6 or exceeds it?
T

Could you please find out whether O=C(Nc1cccc([N+](=O)[O-])c1)NC1N=C(c2ccccc2)c2ccccc2N(CC(=O)C2CCCC2)C1=O (racemic) has pIC50 that meets 6 or exceeds it?
F

Could you please find out whether Cc1cccc(NC(=O)N[C@@H]2N=C(c3ccccc3)c3ccccc3N(C[C@H](O)C3CCCC3)C2=O)c1 (racemic) [Example 12] has pIC50 that meets 6 or exceeds it?
F

Could you please find out whether Cc1cccc(NC(=O)N[C@@H]2N=C(c3ccccc3)c3ccccc3N(CC(=O)C3CCCC3)C2=O)c1 has pIC50 that meets 6 or exceeds it?
F

Could you please find out whether CC(=O)N1CCC[C@H]1C(=O)CN1C(=O)C(NC(=O)Nc2cccc(C)c2)N=C(c2ccccc2)c2ccccc21 (mixture of isomers) has pIC50 that meets 6 or exceeds it?
F

Could you please find out whether Cc1cccc(NC(=O)NC2N=C(c3ccccc3)c3ccccc3N(CC(=O)CC3CCCCC3)C2=O)c1 (racemic) has pIC50 that meets 6 or exceeds it?
T

Could you please find out whether Cc1cccc(NC(=O)NC2N=C(c3ccccc3)c3ccccc3N(CC(=O)C3(C)CCCCC3)C2=O)c1 (racemic) has pIC50 that meets 6 or exceeds it?
F

Could you please find out whether O=C(O)Cc1cccc(NC(=O)NC2N=C(c3ccccc3)c3ccccc3N(CC(=O)C3CCCC3)C2=O)c1 (racemic) has pIC50 that meets 6 or exceeds it?
F

Could you please find out whether O=C(Nc1cccc(C(=O)O)c1)N[C@@H]1N=C(c2ccccc2)c2ccccc2N(C[C@H](O)C2CCCC2)C1=O has pIC50 that meets 6 or exceeds it?
F

Could you please find out whether NC(=O)c1cccc(NC(=O)NC2N=C(c3ccccc3)c3ccccc3N(CC(=O)C3CCCC3)C2=O)c1 (racemic) has pIC50 that meets 6 or exceeds it?
F
